Tested on: A673 NR0B1-luciferase reporter, viability-normalised luminescence
measurement-notes: suppressors of NR0B1-promoter luciferase reporter, dose response, EWS/Fli inhibitor project, luciferase luminescence, A673 cells, cherry-pick (AID 686920)
Form field: AC35 (one value per entry).

[
  {
    "compound": "CN(C[C@H]1N[C@@H](CO)[C@@H]1c1ccc(C2=CCCC2)cc1)C(=O)c1ccc(F)cc1",
    "target": "A673 NR0B1-luciferase reporter, viability-normalised luminescence",
    "result": "5.59 µM"
  },
  {
    "compound": "COC(=O)C1=C(C)N(Cc2ccccc2C(F)(F)F)C(=NCc2ccc(OC)cc2)NC1c1ccc(C(F)(F)F)cc1 (centres undefined)",
    "target": "A673 NR0B1-luciferase reporter, viability-normalised luminescence",
    "result": "29.9 µM"
  },
  {
    "compound": "C/C(=N\\OCc1cccc(C(=O)O)c1)c1ccc(Cl)cc1",
    "target": "A673 NR0B1-luciferase reporter, viability-normalised luminescence",
    "result": "0.832 µM"
  },
  {
    "compound": "C[C@H](CO)N1C[C@H](C)[C@H](CN(C)Cc2ccc(C(F)(F)F)cc2)Oc2c(NS(=O)(=O)c3ccc(Cl)cc3)cccc2C1=O",
    "target": "A673 NR0B1-luciferase reporter, viability-normalised luminescence",
    "result": "43.4 µM"
  },
  {
    "compound": "Cc1sc2nc(CN3CCC(C)CC3)nc(Cl)c2c1C",
    "target": "A673 NR0B1-luciferase reporter, viability-normalised luminescence",
    "result": "63 µM"
  },
  {
    "compound": "COc1ccc2nc(-c3ccc(F)cc3)sc2c1",
    "target": "A673 NR0B1-luciferase reporter, viability-normalised luminescence",
    "result": "8.38 µM"
  },
  {
    "compound": "C(=N\\Nc1nc2ccccc2[nH]1)/c1ccccn1",
    "target": "A673 NR0B1-luciferase reporter, viability-normalised luminescence",
    "result": "5.58 µM"
  },
  {
    "compound": "N#CC1C=Cc2c(ccc3ccccc23)N1C(=O)c1ccccc1 (centres undefined)",
    "target": "A673 NR0B1-luciferase reporter, viability-normalised luminescence",
    "result": "0.692 µM"
  },
  {
    "compound": "COc1cc(/C=C/C(=O)/C=C(O)/C=C/c2ccc(O)c(OC)c2)ccc1O",
    "target": "A673 NR0B1-luciferase reporter, viability-normalised luminescence",
    "result": "5.92 µM"
  },
  {
    "compound": "C[C@H]1CN([C@@H](C)CO)C(=O)c2cccc(NC(=O)c3ccc(-c4nccs4)cc3)c2O[C@@H]1CN(C)Cc1ccc(C(=O)Nc2ccccc2N)cc1",
    "target": "A673 NR0B1-luciferase reporter, viability-normalised luminescence",
    "result": "14.1 µM"
  }
]

Lab note: Cc1cc2c(C(C)C)c(O)c(O)c(C=O)c2c(O)c1-c1c(C)cc2c(C(C)C)c(O)c(O)c(C=O)c2c1O gave AC35 of 7.16 µM

Lab note: CCOc1cc2[nH]c(=S)n(Cc3ccc(C(=O)NCCN(CC)CC)cc3)c(=O)c2cc1OCC gave AC35 of 31.1 µM

Lab note: Cc1ccc(C(=O)O/N=C(\N)c2ccccn2)cc1 gave AC35 of 9.92 µM

Lab note: CN(C)c1ccc(N=Nc2nc3ccccc3n2C)cc1 gave AC35 of 12.5 µM

Lab note: O=C1CCC2S/C(=C/Nc3ccc(C(F)(F)F)cc3)C(=O)N12 (centres undefined) gave AC35 of 0.385 µM

Lab note: C/C(=N\Nc1cccc2cccnc12)c1ccccn1 gave AC35 of 19 µM

Lab note: Nc1ccc(Oc2ccccc2-c2ccccc2)cc1 gave AC35 of 2.49 µM

Lab note: CCN(CC)C(=O)CN1C(=O)C(=O)c2ccccc21 gave AC35 of 42 µM

Lab note: CC[C@@H]1C[C@H]2CC[C@H](O2)[C@H](C)C(=O)O[C@@H](C)C[C@@H]2CC[C@@H](O2)[C@@H](C)C(=O)O[C@H](C)C[C@H]2CC[C@H](O2)[C@H](C)C(=O)O[C@@H](C)C[C@@H]2CC[C@@H](O2)[C@@H](C)C(=O)O1 gave AC35 of 0.0992 µM

====

System: A673 NR0B1-luciferase reporter, viability-normalised luminescence
measurement-notes: suppressors of NR0B1-promoter luciferase reporter, dose response, EWS/Fli inhibitor project, luciferase luminescence, A673 cells, cherry-pick (AID 686920)
Form field: AC35 (one value per entry).

// worked examples, AC35 included
[
  {
    "molecule": "O=C(c1nnsc1S(=O)c1ccc(Cl)cc1)N1CCOCC1 (stereo not given)",
    "target": "A673 NR0B1-luciferase reporter, viability-normalised luminescence",
    "AC35": "14.1 µM"
  },
  {
    "molecule": "CC(C)(C)c1ccc(Cn2c(=O)cnc3ccccc32)cc1",
    "target": "A673 NR0B1-luciferase reporter, viability-normalised luminescence",
    "AC35": "13.2 µM"
  },
  {
    "molecule": "Cc1cccc(/C=N/Nc2ccc3ccccc3n2)c1",
    "target": "A673 NR0B1-luciferase reporter, viability-normalised luminescence",
    "AC35": "1.6 µM"
  },
  {
    "molecule": "N#C[C@H]1[C@H](c2ccc(C#Cc3ccccc3F)cc2)[C@@H](CO)N1C(=O)C1CCOCC1",
    "target": "A673 NR0B1-luciferase reporter, viability-normalised luminescence",
    "AC35": "34 µM"
  },
  {
    "molecule": "O=C(NC[C@@H]1N[C@@H](CO)[C@H]1c1ccc(C2=CCCCC2)cc1)c1cccc(F)c1",
    "target": "A673 NR0B1-luciferase reporter, viability-normalised luminescence",
    "AC35": "29.8 µM"
  }
]

Lab note: O=C1NC(=O)N(Cc2ccc(F)cc2)C(=O)/C1=C\C=C\c1ccco1 gave AC35 of 7.32 µM

Lab note: Cc1c(Cc2ccc3c(c2)OCO3)sc(NC(=O)C(C)(C)C)c1C#N gave AC35 of 9.84 µM

Lab note: CCc1ccc(/C=C2\SC(=S)N(CCCC(=O)N3CCN(C)CC3)C2=O)cc1 gave AC35 of 21.3 µM

Lab note: C[C@@H]1CN([C@@H](C)CO)C(=O)c2cc(NS(=O)(=O)c3ccc(F)cc3)ccc2O[C@@H]1CN(C)Cc1ccc(C(=O)Nc2ccccc2N)cc1 gave AC35 of 9.48 µM

Lab note: COc1ccc(/C=C2\SC(=O)N(CCCC(=O)Nc3cc(Cl)ccc3C(=O)O)C2=O)cc1 gave AC35 of 0.169 µM

====

System: A673 NR0B1-luciferase reporter, viability-normalised luminescence
measurement-notes: suppressors of NR0B1-promoter luciferase reporter, dose response, EWS/Fli inhibitor project, luciferase luminescence, A673 cells, cherry-pick (AID 686920)
Form field: AC35 (one value per entry).

// worked examples, AC35 included
[
  {
    "smiles-notation": "CC(C)(C)c1ccc(/C=N/Nc2ccc(C(=O)O)cc2)cc1",
    "AC35": "2.22 µM"
  },
  {
    "smiles-notation": "CCOc1cc(N2CCC(O)CC2)ccc1Nc1ncc2c(n1)N(C)c1ccccc1C(=O)N2C",
    "AC35": "2.01 µM"
  },
  {
    "smiles-notation": "COc1cc(/C=C/C(=O)CC(=O)/C=C/c2ccc(O)c(OC)c2)ccc1O",
    "AC35": "7.91 µM"
  },
  {
    "smiles-notation": "CC(C)(C)c1ccc(Oc2ccc(NC(=O)c3ccccc3C(=O)O)cn2)cc1",
    "AC35": "5.78 µM"
  }
]

Lab note: C[C@H](CO)N1C[C@H](C)[C@H](CN(C)Cc2ccc(C(=O)Nc3ccccc3N)cc2)Oc2c(cccc2N(C)C)C1=O gave AC35 of 12.9 µM

Lab note: CCCNC(=O)N1[C@H](C#N)[C@H](c2ccc(C#Cc3cccc(F)c3)cc2)[C@H]1CO gave AC35 of 8.47 µM

Lab note: CN(C[C@H]1N[C@@H](CO)[C@@H]1c1ccc(C2=CCCC2)cc1)C(=O)c1cccc(F)c1 gave AC35 of 3.48 µM

Lab note: C[C@@H]1CCCCO[C@H](CN(C)Cc2ccc(C(=O)Nc3ccccc3N)cc2)[C@@H](C)CN([C@H](C)CO)C(=O)c2cc(NS(=O)(=O)c3ccc(F)cc3)ccc2O1 gave AC35 of 5.53 µM

Lab note: C[C@@H]1CN([C@@H](C)CO)C(=O)c2cc(NC(=O)c3ccccc3)ccc2O[C@@H](C)CCCCO[C@H]1CN(C)C(=O)Nc1cccc2ccccc12 gave AC35 of 0.873 µM
